Recorded melting point for the following compounds

Use the examples below as a reference point.
What value of melting point has been recorded for this entry: CCOC(=O)C(CC)Oc1ccccc1C(C)=O (stereo unspecified)
43 to 45 °C

What value of melting point has been recorded for this entry: COC1(c2ccco2)CC2=C(C=C1C(F)(F)F)N(C(=O)Nc1cccnc1)CC2 (stereo unspecified)
92 to 94 °C

What value of melting point has been recorded for this entry: CC(=O)Nc1cccc(C=O)c1C
160 °C

What value of melting point has been recorded for this entry: CC(C)(C)n1c(=O)[nH]c2ccccc2c1=O
218 to 220 °C

Continuing:
What value of melting point has been recorded for this entry: Cn1c2cc[nH]c(=O)c2c2cccc(F)c21
294 to 296 °C

What value of melting point has been recorded for this entry: COC(=O)c1ccc(N2C(=O)c3ccccc3C2=O)cc1O
218 to 219 °C

* * *

Recorded melting point for the following compounds

Use the examples below as a reference point.
What value of melting point has been recorded for this entry: Cc1oc(-c2ccccc2)nc1COc1ccc(CCl)cc1
108 to 109 °C

What value of melting point has been recorded for this entry: Cc1c(-c2ccccc2)nn2c1-c1ccccc1CC2
122 to 124 °C

What value of melting point has been recorded for this entry: CCCOc1ccccc1C(=O)Nc1cnccc1C(N)=O
181 to 183 °C

What value of melting point has been recorded for this entry: Fc1ccc(N2CCN(CCCc3[nH]nc4c3CSCC4)CC2)cc1
110 to 111 °C

What value of melting point has been recorded for this entry: CCOC(=O)CCc1cc(C(=O)c2ccc(C(=O)OCC)cc2)ccc1O
70 to 71 °C

What value of melting point has been recorded for this entry: CC(C)(C)NC(=O)[C@@H]1C[C@H](Cl)CN1C(=O)OC(C)(C)C
149 to 150 °C

What value of melting point has been recorded for this entry: C=CCC(O)CCCCCCCCCOc1ccccc1 (stereo unspecified)
50 to 52 °C

What value of melting point has been recorded for this entry: CNC(=S)NCCSCc1cncs1
86 to 88 °C

What value of melting point has been recorded for this entry: CC(C)(C)n1cnc2c1c1ccccc1n1nnnc21
224 to 226 °C

What value of melting point has been recorded for this entry: O=C1NCC(Cn2cncn2)(c2ccc(Cl)cc2Cl)O1 (stereo unspecified)
223 °C

Consider the record given below.
What value of melting point has been recorded for this entry: CC1(C)C(=O)C(C)(C)c2cc(C(F)CN3CCN(c4nsc5ccccc45)CC3)ccc21 (stereo unspecified)
64 to 73 °C

* * *

PARAMETER: melting point

Use the examples below as a reference point.
What value of melting point has been recorded for this entry: CSc1ccc(NS(=O)(=O)c2ccc(C)cc2)c([N+](=O)[O-])c1
116 to 117 °C

What value of melting point has been recorded for this entry: COC(=O)C(=O)Nc1c(-c2ccccc2)c(=O)[nH]c2cc(Cl)ccc12
240 °C

Continuing:
What value of melting point has been recorded for this entry: O=C(O)COc1ccc(-c2c3ccccc3c(Br)c3sc4ccccc4c23)cc1
198 to 200 °C

What value of melting point has been recorded for this entry: CN(c1cccc2cc(-c3ncc(CCC(=O)O)s3)[nH]c12)S(=O)(=O)c1cccs1
234 to 235 °C

What value of melting point has been recorded for this entry: O=c1nc(-c2cccc(-c3ccco3)n2)sc2ccccc12
218 °C

What value of melting point has been recorded for this entry: Cc1ccc(C2=C(c3ccc(S(C)(=O)=O)cc3)CN(C)C2=O)c(C)c1
59 to 61 °C

What value of melting point has been recorded for this entry: CN1CCC(c2ccc(Cl)c(Cl)c2)C(CO)C1 (stereo unspecified)
109 to 111 °C

What value of melting point has been recorded for this entry: N#Cc1cccc2c1[nH]c1ccccc12
200 to 201 °C

What value of melting point has been recorded for this entry: CC1CC(n2ccc(-c3ccc(F)cc3)c2-c2ccncc2)CCN1 (stereo unspecified)
173 to 175 °C

What value of melting point has been recorded for this entry: O=C1NC(=O)C(c2cccc3ccsc23)O1 (stereo unspecified)
130 to 132 °C

What value of melting point has been recorded for this entry: CCCCCn1ncc2c(N)c(C(N)=O)cnc21
201 to 202 °C

What value of melting point has been recorded for this entry: CCOC(=O)c1ccc(Nc2nc(=O)c3cccnc3s2)cc1
230 to 233 °C

What value of melting point has been recorded for this entry: N#CCCCCCC(=NO)c1ccc(Cl)cc1
58 to 59 °C

What value of melting point has been recorded for this entry: Cc1cccc(S(=O)(=O)C2(CC#Cc3ccc(Cl)cc3)SC(=O)NC2=O)n1 (stereo unspecified)
104 to 106 °C

What value of melting point has been recorded for this entry: O=C(NCCSc1ccncc1)c1ccccc1CO
132 to 133 °C

What value of melting point has been recorded for this entry: COc1cc2c(cc1Nc1ncc(Cl)c(Nc3ccc(N4CCOCC4)cc3OC)n1)CCN(CCNC(C)=O)CC2
50 to 65 °C

What value of melting point has been recorded for this entry: N#Cc1ccccc1OCCCCC(=O)O
87 to 89 °C

What value of melting point has been recorded for this entry: COC(F)(F)C(F)(F)C(N)=O
78 to 80 °C

What value of melting point has been recorded for this entry: CC(C)(C)c1cc(C(c2ccc(C(F)(F)F)cc2)N2CCCCC2)c(O)c(C(C)(C)C)c1 (stereo unspecified)
150 to 152 °C

What value of melting point has been recorded for this entry: COc1cc(C(CCN(C)C)C(N)=O)cc(OC)c1OC (stereo unspecified)
110 to 112 °C

What value of melting point has been recorded for this entry: O=C1NC(NCC2CC2)=N/C1=C\c1c[nH]c2ncc(F)cc12
312 °C

What value of melting point has been recorded for this entry: CC(C)(C)OC(=O)N1CCCc2onc(O)c2C1
170 to 171 °C

What value of melting point has been recorded for this entry: O=C(O)C1CC(=O)N(c2ccc(O)cc2)C1 (stereo unspecified)
201 to 204 °C

What value of melting point has been recorded for this entry: O=c1c2cc(F)c(Cl)nc2n(Cc2ccccc2)c(=O)n1OCc1ccccc1
209 to 210 °C

What value of melting point has been recorded for this entry: CC(C)(C#N)CN1C(=O)C2(OCCCO2)c2cc(Cl)ccc21
114 to 116 °C

What value of melting point has been recorded for this entry: Cc1cccc(-c2n[nH]cc2-c2ccc(F)c(-c3cnn(C)c3)c2)n1
155 to 156 °C

What value of melting point has been recorded for this entry: O=[N+]([O-])c1ccc(OC2OC(CO)C(O)C(OCc3ccccc3)C2O)cc1 (stereo unspecified)
127 °C

* * *

Recorded melting point for the following molecules

Use the examples below as a reference point.
What value of melting point has been recorded for this entry: Cc1nc2nc(SCc3ccccc3)nn2c(Cl)c1Cl
103 to 105 °C

What value of melting point has been recorded for this entry: CC(=O)c1c(CCN2CCN(C)CC2)nc(-c2ccccc2)nc1-c1cccc([N+](=O)[O-])c1
88 to 91 °C

Continuing:
What value of melting point has been recorded for this entry: CC(=O)c1ccc2c(c1)ncn2-c1cccc(-c2ccccn2)c1
158 to 159 °C

What value of melting point has been recorded for this entry: OCc1cn(-c2ccc(Cl)cn2)cn1
82 to 87 °C

What value of melting point has been recorded for this entry: COC(=O)c1cccc(-c2ccccc2)c1S(C)(=O)=O
101 to 115 °C

What value of melting point has been recorded for this entry: O=[N+]([O-])c1c(Cl)cccc1CS(=O)(=O)c1ccccc1
141 to 142 °C

* * *

PARAMETER: melting point

Use the examples below as a reference point.
What value of melting point has been recorded for this entry: Cc1ccc(S(=O)(=O)N(C)SSN(C)S(=O)(=O)c2ccc(C)cc2)cc1
90 to 94 °C

What value of melting point has been recorded for this entry: Cc1ncc2c(C#N)c(-c3ccc(S(=O)(=O)N[C@@H](C)C4CC4)cn3)n(C3CCC3)c2n1
155 to 157 °C

What value of melting point has been recorded for this entry: CC(=O)OC12Oc3cc(C(C)C)ccc3C1(OC(C)=O)C(=O)c1c(N)cccc12 (stereo not given)
201 to 203 °C

What value of melting point has been recorded for this entry: COC1(c2ccccc2)OC=C(c2ccc(CCC(=O)O)cc2)C1=O (stereo not given)
117 to 120 °C

Continuing:
What value of melting point has been recorded for this entry: Cn1ccnc1S(=O)CC(=O)C12CC3CC(CC(C3)C1)C2 (stereo not given)
86 to 89 °C

What value of melting point has been recorded for this entry: O=C(NC1CC1)OC1c2ccccc2C(=O)N1c1ccc2ccc(Cl)nc2n1 (stereo not given)
220 °C

What value of melting point has been recorded for this entry: O=C(O)COc1ccc(C(=CC(=O)NCc2cccnc2)c2ccccc2)cc1
187 to 189 °C

What value of melting point has been recorded for this entry: CC(C)(C)OC(=O)C(Br)=CC1C(C(=O)O)C1(C)C (stereo not given)
76 °C

What value of melting point has been recorded for this entry: O=C(O)Cn1cc(Cc2nc3c(F)c(F)cc(F)c3s2)c2ccccc21
177 to 178 °C
